System: MDA-MB-231
Assay: Cytotoxicity against human MDA-MB-231 cells assessed as decrease in cell viability after 72 hrs by SRB assay
Assay type: functional, cell-based
Conditions: MDA-MB-231, 72 h
Reported IC50 values for a set of compounds
State the answer as a number, implicitly in µM.

The examples below pair each entry with its known result.
>>> data_value("CNc1ncnc2c1ncn2[C@@H]1C(F)=C(CO)[C@@H](O)[C@H]1O")
8.05
>>> data_value("Nc1ccn([C@@H]2O[C@H](CO)[C@@H](O)[C@@H]2O)c(=O)n1")
10.5
>>> data_value("O=c1nc(O)c(F)cn1[C@@H]1C(F)=C(CO)[C@@H](O)[C@H]1O")
67.7

Attention now shifts to the item below.
Fill in: MDA-MB-231 IC50 for Nc1nc(N)c2ncn([C@@H]3C(F)=C(CO)[C@@H](O)[C@H]3O)c2n1 = 22.8
